Entries and their kon values follow.
Target: T1, rhNR10 (recombinant human NR10) (human, UniProt Q8NI17 20-519, limits assumed)
T1 construct: also called IL-31 receptor; IL31RA
T1 sequence: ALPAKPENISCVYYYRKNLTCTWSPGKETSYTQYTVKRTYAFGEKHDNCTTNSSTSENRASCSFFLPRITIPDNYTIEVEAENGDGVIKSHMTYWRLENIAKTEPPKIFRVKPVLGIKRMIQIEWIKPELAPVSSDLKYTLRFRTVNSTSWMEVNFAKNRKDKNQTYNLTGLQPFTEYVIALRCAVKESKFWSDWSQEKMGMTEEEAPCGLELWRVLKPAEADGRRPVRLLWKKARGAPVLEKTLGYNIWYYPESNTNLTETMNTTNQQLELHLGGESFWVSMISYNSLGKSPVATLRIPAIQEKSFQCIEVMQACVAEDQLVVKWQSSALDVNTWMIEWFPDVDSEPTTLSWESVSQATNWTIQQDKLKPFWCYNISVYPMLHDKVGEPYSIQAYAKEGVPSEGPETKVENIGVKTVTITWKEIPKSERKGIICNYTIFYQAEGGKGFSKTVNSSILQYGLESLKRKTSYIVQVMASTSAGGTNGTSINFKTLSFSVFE
Assay: SPR, Biacore T100; antibody captured on Protein A, rhNR10 as analyte

binder: H30L17 (H30-M58 / L17) (antibody, V domains shown) VH: QVQLVQSGAEVKKPGASVKVSCKASGYTFTGYIMNWVRQAPGQGLEWMGLINPYNGGTDYNPQFQDRVTITADESTSTAYMELSSLRSEDTAVYYCARDGYDDGPYTLETWGQGTLVTVSS VL: DIQMTQSPSSLSASVGDRVTITCQASEDIYSFVAWYQQKPGKAPKLLIYNAQTEAQGVPSRFSGSGSGTDFTLTISSLQPEDFATYYCQHHYDSPLTFGGGTKVEIKR
result: 680000 M⁻¹ s⁻¹

Here is another binder to look at.
get_value(item= H44L17 (H44-M58 / L17) (antibody, V domains shown, also called humanized anti-human NR10 antibody) VH: QVQLVQSGAEVKKPGASVKVSCKASGYTFTGYIMNWVRQAPGQGLEWMGLINPYNGGTDYNPQFQDRVTITADKSTSTAYMELSSLRSEDTAVYYCARDGYDDGPYTLETWGQGTLVTVSS VL: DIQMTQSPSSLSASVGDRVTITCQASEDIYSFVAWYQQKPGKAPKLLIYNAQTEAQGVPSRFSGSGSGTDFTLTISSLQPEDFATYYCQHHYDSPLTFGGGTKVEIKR , readout=kon) returns 610000 M⁻¹ s⁻¹
